System: Molm-13
Assay: cells
Type: cell-based
Settings: Homo sapiens, MOLM-13, 24 h, read-out: IC50 Molm 24 h
Each record here notes measured IC50.

>  <compound>
CCc1ccc(C(=O)Nc2ccc([As]3SCCCS3)cc2)cc1 [EZ2]

>  <IC50 (nM)>
1100

$$$$
>  <compound>
O=C(Nc1ccc([As]2SCCCS2)cc1)c1ccc(F)cc1 [FZ2]

>  <IC50 (nM)>
1200

$$$$
>  <compound>
O=C(Nc1ccc([As]2SCCCS2)cc1)c1ccc2c(c1)OCO2 [PZ2]

>  <IC50 (nM)>
1060

$$$$
>  <compound>
COc1cc(C(=O)Nc2ccc([As]3SCCCS3)cc2)cc(OC)c1OC [TAZ2]

>  <IC50 (nM)>
1600

$$$$
>  <compound>
COc1ccc(C(=O)Nc2ccc([As]3SCCCS3)cc2)cc1OC [DAZ2]

>  <IC50 (nM)>
900

$$$$
>  <compound>
COc1cc(C(=O)Nc2ccccc2[As]2SCCCS2)cc(OC)c1OC [TAZ5]

>  <IC50 (nM)>
710

$$$$
>  <compound>
COc1cc(C(=O)Nc2ccc([As]3SCCCS3)cc2)cc(OC)c1O [HDZ2]

>  <IC50 (nM)>
600

$$$$
>  <compound>
O=C(Nc1ccc([As]2SCCCS2)cc1)c1ccc2c(c1)OC(F)(F)O2 [PFZ2]

>  <IC50 (nM)>
800

$$$$

---

System: HeLa
Assay: cells
Assay type: cell-based, human
Details: Homo sapiens, HeLa, 48 h, read-out: IC50 HeLa 48 h
Binarize IC50 at 0.4 µM; below is Met, at or above is Not met.

>  <smilesRepr>
O=C(Nc1ccccc1[As]1SCCCS1)c1ccc(F)cc1

>  <cat>
Met

$$$$
>  <smilesRepr>
COc1ccc(C(=O)Nc2ccccc2[As]2SCCCS2)cc1OC

>  <cat>
Not met

$$$$
>  <smilesRepr>
COc1ccc(C(=O)Nc2ccc([As]3SCCCS3)cc2)cc1OC

>  <cat>
Not met

$$$$
>  <smilesRepr>
O=C(Nc1ccccc1[As]1SCCCS1)c1ccc2c(c1)OCO2

>  <cat>
Met

$$$$
>  <smilesRepr>
COc1cc(C(=O)Nc2ccccc2[As]2SCCCS2)cc(OC)c1OC

>  <cat>
Not met

$$$$
>  <smilesRepr>
CCc1ccc(C(=O)Nc2ccc([As]3SCCCS3)cc2)cc1

>  <cat>
Not met

$$$$
>  <smilesRepr>
O=C(Nc1ccc([As]2SCCCS2)cc1)c1ccc2c(c1)OCO2

>  <cat>
Not met

$$$$
>  <smilesRepr>
O=C(Nc1ccc([As]2SCCCS2)cc1)c1ccc2c(c1)OC(F)(F)O2

>  <cat>
Met

$$$$

---

System: Molm-13
Test: cells
Type: cell-based
Details: Homo sapiens, MOLM-13, 24 h, read-out: IC50 Molm 24 h
pIC50: −log10 of the molar value.

>  <smilesRepr>
COc1ccc(C(=O)Nc2ccccc2[As]2SCCCS2)cc1OC

>  <pIC50>
6.35

$$$$
>  <smilesRepr>
O=C(Nc1ccccc1[As]1SCCCS1)c1ccc(F)cc1

>  <pIC50>
6.30

$$$$
>  <smilesRepr>
CC(=O)Oc1ccc(C(=O)Nc2ccc([As]3SCCCS3)cc2)cc1

>  <pIC50>
5.96

$$$$
>  <smilesRepr>
O=C(Nc1ccccc1[As]1SCCCS1)c1ccc2c(c1)OCO2

>  <pIC50>
6.57

$$$$
>  <smilesRepr>
Cc1ccc(C(=O)Nc2ccc([As]3SCCCS3)cc2)cc1

>  <pIC50>
5.92

$$$$

---

Test system: PBMC
Experiment: cells
Format: cell-based, rat
Conditions: Rattus norvegicus, PBMC, 48 h, read-out: IC50 PBMC 48 h
pIC50: −log10 of the molar value.
resultType: pIC50

>  <compound>
COc1cc(C(=O)Nc2ccc([As]3SCCCS3)cc2)cc(OC)c1OC [TAZ2]

>  <measured>
5.19

$$$$
>  <compound>
COc1ccc(C(=O)Nc2ccc([As]3SCCCS3)cc2)cc1OC [DAZ2]

>  <measured>
5.24

$$$$
>  <compound>
O=C(Nc1ccc([As]2SCCCS2)cc1)c1ccc(F)cc1 [FZ2]

>  <measured>
5.33

$$$$
>  <compound>
O=C(Nc1ccccc1[As]1SCCCS1)c1ccc2c(c1)OCO2 [PZ5]

>  <measured>
5.35

$$$$
>  <compound>
CCc1ccc(C(=O)Nc2ccc([As]3SCCCS3)cc2)cc1 [EZ2]

>  <measured>
5.54

$$$$
>  <compound>
O=C(Nc1ccc([As]2SCCCS2)cc1)c1ccc2c(c1)OC(F)(F)O2 [PFZ2]

>  <measured>
5.24

$$$$
>  <compound>
COc1cc(C(=O)Nc2ccccc2[As]2SCCCS2)cc(OC)c1OC [TAZ5]

>  <measured>
5.81

$$$$
>  <compound>
COc1ccc(C(=O)Nc2ccccc2[As]2SCCCS2)cc1OC [DAZ5]

>  <measured>
5.46

$$$$
>  <compound>
O=C(Nc1ccc([As]2SCCCS2)cc1)c1ccc2c(c1)OCO2 [PZ2]

>  <measured>
5.28

$$$$
>  <compound>
O=C(Nc1ccccc1[As]1SCCCS1)c1ccc(F)cc1 [FZ5]

>  <measured>
5.74

$$$$
>  <compound>
Cc1ccc(C(=O)Nc2ccc([As]3SCCCS3)cc2)cc1 [MZ2]

>  <measured>
5.57

$$$$
>  <compound>
COc1cc(C(=O)Nc2ccc([As]3SCCCS3)cc2)cc(OC)c1O [HDZ2]

>  <measured>
5.31

$$$$
>  <compound>
CC(=O)Oc1ccc(C(=O)Nc2ccc([As]3SCCCS3)cc2)cc1 [AZ2]

>  <measured>
5.31

$$$$

---

Test system: 4T1
Test: cells
Format: cell-based
Conditions: Mus musculus, 4T1, 24 h, read-out: IC50 4T1 24 h
pIC50: −log10 of the molar value.

>  <smilesRepr>
CC(=O)Oc1ccc(C(=O)Nc2ccc([As]3SCCCS3)cc2)cc1

>  <pIC50>
5.70

$$$$
>  <smilesRepr>
O=C(Nc1ccc([As]2SCCCS2)cc1)c1ccc2c(c1)OCO2

>  <pIC50>
5.59

$$$$
>  <smilesRepr>
O=C(Nc1ccc([As]2SCCCS2)cc1)c1ccc(F)cc1

>  <pIC50>
5.64

$$$$

---

Test system: HeLa
Assay: cells
Type: cell-based, human
Conditions: Homo sapiens, HeLa, 48 h, read-out: IC50 HeLa 48 h
resultType: IC50 (µM)

>  <molecule>
COc1cc(C(=O)Nc2ccc([As]3SCCCS3)cc2)cc(OC)c1OC [TAZ2]

>  <endpointUnit>
µM

>  <measured>
1.04

$$$$
>  <molecule>
COc1cc(C(=O)Nc2ccc([As]3SCCCS3)cc2)cc(OC)c1O [HDZ2]

>  <endpointUnit>
µM

>  <measured>
1.01

$$$$
>  <molecule>
CC(=O)Oc1ccc(C(=O)Nc2ccc([As]3SCCCS3)cc2)cc1 [AZ2]

>  <endpointUnit>
µM

>  <measured>
0.5

$$$$

---

Test system: COS-7
Assay: cells
Type: cell-based, African green monkey
Settings: read-out: IC50 COS-7 48 h
pIC50: −log10 of the molar value.

>  <smilesRepr>
COc1ccc(C(=O)Nc2ccc([As]3SCCCS3)cc2)cc1

>  <pIC50>
5.48

$$$$
